Experiment: inhibitors of E-selectin induction by TNFa, primary screen, imaging, HUVEC, immunofluorescence, MLSMR starter and 10KST1 sets (AID 487);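 further: signal is fraction of cell area covered by stained E-selectin grains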
Conditions: HUVEC TNFalpha-induced E-selectin immunofluorescence imaging, at 2 µM; stronger effect = higher value
For each entry below, report its inhibition value.
I only need the number, in %, no unit after it.

State its inhibition: CC(C)CN1C(=O)NC(NC(=O)c2cccnc2)(C(F)(F)F)C1=O (stereo not given)
-106

State its inhibition: "Nc1ccc(S(=O)(=O)Nc2ncccn2)cc1"
-68.8

State its inhibition: "Cc1cc(N2CCN(C3CCCC3)CC2)n2c(nc3ccccc32)c1C#N"
6.5

State its inhibition: CCOC(=O)CSC1=C(C#N)C(c2ccc(C)cc2)C(C(=O)OC)C(=O)N1 (stereo not given)
-39.2

State its inhibition: COC(=O)CN1C2(C#N)CCCCC2CC2CCCCC21C#N (stereo not given)
-128

State its inhibition: "Brc1ccc(-c2cnc3n2CCCC3)cc1"
-15.9

State its inhibition: COc1ccc(/C(O)=C2\C(=O)C(=O)N(c3cc(C)on3)C2c2cccc(OC)c2OC)cc1C (stereo not given)
-148

State its inhibition: "COc1ccc(-n2c(SCC(N)=O)nc3sc4c(c3c2=O)CCN(C)C4)cc1"
-51.4

State its inhibition: CN(C)CC(O)COc1cccc(OCC(O)CN(C)C)c1 (stereo not given)
-137

State its inhibition: "CCn1c(SCC(=O)O)nc2sc3c(c2c1=O)CCC3"
9.9

---

Experiment: inhibitors of Sendai virus-induced IRF3 signaling, primary screen, TLR/RLR signaling modifier project, cell-based, Sendai virus stimulus, luciferase, 10K MLSCN set (AID 602276);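 further: firefly luciferase from ISG56 promoter only with Renilla not read in this screen; 0% = Sendai virus plus DMSO and 100% = medium plus DMSO without virus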
Settings: HEK293 RL24 IRF3 luciferase reporter, at 10 µM, stronger effect = higher value
Metric: inhibition (%)
I only need the number, in %, no unit after it.

State its inhibition: "Cc1cc(C)n(Cc2cc(C)c(Cn3nc(C)cc3C)cc2C)n1"
8.11

State its inhibition: "Cn1ccnc1SCCC#N"
5.13

State its inhibition: "CCN(CC)c1ncc(C)c(=O)[nH]1"
22.3

State its inhibition: "COc1ccc(Cn2c(N)c(C#N)c3nc4ccccc4nc32)cc1OC"
15.4

State its inhibition: "CCCCc1nc2n[nH]c(N)c2c2c1CCCC2"
-0.43

State its inhibition: "CN1CCN(CC(=O)N2c3ccccc3C(=O)Nc3cccnc32)CC1"
18.8

State its inhibition: "NS(=O)(=O)c1cc2c(cc1Cl)NC=NS2(=O)=O"
-14.2

State its inhibition: C=CCNc1nnc(SC2CC(=O)N(c3ccc(OC)cc3)C2=O)s1 (configuration not stated)
12.1

State its inhibition: "Fc1ccccc1-c1nc(NCCCN2CCOCC2)c2ccccc2n1"
-10.9

State its inhibition: Cc1cc(N2C(=O)C(=O)/C(=C(/O)c3ccc(F)cc3)C2c2ccc(F)cc2)no1 (configuration not stated)
14.8

State its inhibition: COCCc1ccc(OCC(O)CNC(C)C)cc1 (configuration not stated)
15.3

State its inhibition: "N=c1nc(N2CCCCC2)cc(N)n1O"
9.96

---

Assay: inhibitors of E-selectin induction by TNFa, primary screen, imaging, HUVEC, immunofluorescence, MLSMR starter and 10KST1 sets (AID 487);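 further: signal is fraction of cell area covered by stained E-selectin grains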
Details: HUVEC TNFalpha-induced E-selectin immunofluorescence imaging, at 2 µM; stronger effect = higher value
Field: class. Source value: inhibition. Ranges: 0: < -50%; 1: ≥ -50% and < -30%; 2: ≥ -30%

Determine which band this compound sits in: "CC(=O)c1ccc(O)c(CO)c1"
1

Determine which band this compound sits in: "Nc1nonc1C(=O)NCCN=Cc1cc(Cc2ccccc2)cc(Br)c1O"
2

Determine which band this compound sits in: "ONC(=Nc1ccccc1)C(=Nc1ccccc1)NO"
2

Determine which band this compound sits in: COc1cc(C2C(C(=O)c3cccs3)=C(O)C(=O)N2c2cc(C)on2)ccc1O (stereo unspecified)
0

Determine which band this compound sits in: CCCOc1ccc(/C(O)=C2/C(=O)C(=O)N(CCN(C)C)C2c2ccc(OC)c(OC)c2)cc1 (stereo unspecified)
0

Determine which band this compound sits in: "COc1cc([C@@H]2[C@H]3CN(C)CC=C3C(C#N)=C(N)C2(C#N)C#N)cc2c1OCO2"
1

Determine which band this compound sits in: CCCN(CCC)C(=O)C(CCC(=O)O)NC(=O)c1ccccc1 (stereo unspecified)
1

Determine which band this compound sits in: CCN(CC)CCN1C(=O)C(=O)/C(=C(/O)c2c(C)[nH]c(C(=O)OC)c2C)C1c1ccco1 (stereo unspecified)
2

Determine which band this compound sits in: CC(C)C1Cc2c(C#N)c(N)n(C)c(=S)c2CO1 (stereo unspecified)
0

Determine which band this compound sits in: "Cc1ccc2c(c1)[C@@H]1CN(C)CC[C@@H]1N2S(=O)(=O)c1ccc(F)cc1"
0

Determine which band this compound sits in: "N#CCCN(CCC#N)c1nnc(-c2ccccc2)s1"
0

Determine which band this compound sits in: "COc1ccc(CCn2c(=N)c(C(=O)NCc3ccco3)cc3c(=O)n4ccccc4nc32)cc1"
0

Determine which band this compound sits in: "CNCCCN1c2ccccc2CCc2ccccc21"
2

Determine which band this compound sits in: "CN(Cc1ccccc1)Cc1c[nH]c2ccccc12"
1

Determine which band this compound sits in: COc1cc(N2C(=O)CSC23C(=O)Nc2ccccc23)cc(OC)c1OC (stereo unspecified)
2

Determine which band this compound sits in: CCOC(=O)c1[nH]c2cc3c(cc2c1NC(=O)CN1CCCCC1C)OCO3 (stereo unspecified)
2

Determine which band this compound sits in: "Cc1c(NC(=O)c2coc(=O)c(Br)c2)c(=O)n(-c2ccccc2)n1C"
2

Determine which band this compound sits in: "CCn1c(-c2ccco2)n[nH]c1=S"
1

Determine which band this compound sits in: CCC(C)n1ncn(-c2ccc(N3CCN(c4ccc(OCC5COC(Cn6cncn6)(c6ccc(Cl)cc6Cl)O5)cc4)CC3)cc2)c1=O (stereo unspecified)
0

Determine which band this compound sits in: "O=C(NCCN1CCCCC1)c1ccc(=O)oc1"
2

Determine which band this compound sits in: "C=CCn1c(SCc2c(F)c(F)c(F)c(F)c2F)nc(O)cc1=O"
2

Determine which band this compound sits in: Cc1ccc(N2C(=O)C3ON(c4ccccc4)C(c4ccncc4)C3C2=O)cc1 (stereo unspecified)
0

Determine which band this compound sits in: "Clc1ccc(-c2nn3c(-c4cccc(Cl)c4)nnc3s2)cc1"
0

Determine which band this compound sits in: "CCOC(=O)c1cc2c(=O)n3ccccc3nc2n(Cc2ccccc2Cl)c1=N"
2

Determine which band this compound sits in: "COc1ccc(C2(CN(C(C)=O)C(C)=O)CCCC2)cc1OC"
2

Determine which band this compound sits in: "CC1(C)Cc2c(C#N)c(SCC(=O)c3ccccc3)nc(N3CCCC3)c2CO1"
2

Determine which band this compound sits in: "COCCNc1oc(-c2ccc(C)cc2)nc1C#N"
2

Determine which band this compound sits in: "OCCN1CCN(CCCN2c3ccccc3Sc3ccc(Cl)cc32)CC1"
0

Determine which band this compound sits in: "Cc1cccc(OCC(=O)N2CCC(N3CCOCC3)CC2)c1"
0

Determine which band this compound sits in: "Cn1c(NCc2ccco2)nc2c1c(=O)n(Cc1ccc(Cl)c(Cl)c1)c(=O)n2C"
1

Determine which band this compound sits in: "CCCCNC1=C(Br)C(=O)CC(C)(C)C1"
1

---

Experiment: inhibitors of mutant huntingtin aggregation, primary screen, imaging, exon1htt(103Q)mCFP cells, high-content imaging (AID 483);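 further: compound exposure lasted 3 days before fixation; percent of the per-plate median nuclei count of sample wells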
Settings: exon1htt(103Q)mCFP cell line, aggregate imaging, at 2 µM; measured here: cell count, toxicity
For each entry below, report its nuclei count value.
I'd appreciate it if you included the unit after the number.

State its nuclei count: "Cc1cc(/C=c2/sc3nc4ccccc4n3c2=O)c(C)n1-c1ccccn1"
105%

State its nuclei count: "COc1ccc(C2(CN(C(C)=O)C(C)=O)CCCC2)cc1OC"
109%

State its nuclei count: "CCOC(=O)c1c(C(F)(F)C(F)(F)C(F)(F)C(F)(F)F)n[nH]c1C"
97.3%

State its nuclei count: "Cn1c(=O)c2[nH]cnc2n(C)c1=O"
83.7%

State its nuclei count: CC(C)c1nc(NCC2CCCO2)c(C#N)c2c1COC(C)(C)C2 (centres undefined)
86.9%

State its nuclei count: CCN(CC)CCN1C(=O)C(O)=C(C(=O)c2cccs2)C1c1ccccn1 (centres undefined)
102%

State its nuclei count: "CCOc1ccc2nc(SCC(=O)Nc3ncccn3)[nH]c2c1"
111%

State its nuclei count: "CNC[C@H](O)c1cccc(O)c1"
89.3%

State its nuclei count: "CCN1CCN(c2nc3c(C)cccn3c(=O)c2/C=C(\C#N)S(=O)(=O)c2ccccc2)CC1"
108%

---

For each entry below, report its inhibition value.
Experiment: inhibitors of Chlamydomonas gravitaxis, primary screen, whole organism, Chlamydomonas reinhardtii, WT vs cilia-less mutant, absorbance, 96-well (AID 463189);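 further: 0% = wild type cc124 cells in DMSO and 100% = ciliumless bld1 mutant cells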
Details: OD600 absorbance, 2 days, at 10 µM, stronger effect = higher value
Activity calls are given as the source filed them.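 Rule for the calls: active = inhibition at or above 50% relative to wild type and mutant plate controls; inactive = inhibition below 50%.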

State its inhibition: CN1CCCN(C(c2ccccc2)c2ccc(Cl)cc2)CC1 (stereo unspecified)
43% (inactive)

State its inhibition: "CCCCCC#CCC#CCC#CCC#CCCCC(=O)O"
2.88% (inactive)

State its inhibition: "C=CCOc1nc2c(c(=O)n(C)c(=O)n2C)n1Cc1c(Cl)cccc1Cl"
-9.21% (inactive)

State its inhibition: "COC(=O)CNc1nc(-c2cccnc2)nc2ccccc12"
-0.905% (inactive)

State its inhibition: "CC(=O)N=c1sc(S(N)(=O)=O)nn1C"
13.4% (inactive)

State its inhibition: CC1=C(C(=O)Nc2ccccc2)C(c2ccncc2)C(C#N)=C(SCC(=O)NC(C)C)N1 (stereo unspecified)
5.12% (inactive)

The measured values listed here are drawn from PubChem BioAssay.
